Listed here: items and their measured pIC50.
EXPERIMENT DESCRIPTION: Inhibition of Bacillus stearothermophilus alpha glucosidase-4
Set-up: species or system Geobacillus stearothermophilus
Formally, pIC50 is defined as -log10 of the concentration c, with c in mol/L.

Worked examples follow.
Oc1cc(O)c2c(c1)O[C@H](c1ccc(O)c(O)c1)[C@H](O)[C@H]2c1c(O)cc(O)c2c1O[C@H](c1ccc(O)c(O)c1)[C@H](O)[C@H]2c1c(O)cc(O)c2c1O[C@H](c1ccc(O)c(O)c1)[C@H](O)[C@H]2c1c(O)c2c(c3c1O[C@]1(c4ccc(O)c(O)c4)Oc4cc(O)cc(O)c4[C@H]3[C@H]1O)O[C@H](c1ccc(O)c(O)c1)[C@H](O)[C@H]2c1c(O)cc(O)c2c1O[C@H](c1ccc(O)c(O)c1)[C@H](O)C2
4.74
Oc1cc(O)c2c(c1)O[C@@]1(c3ccc(O)c(O)c3)Oc3cc(O)c4c(c3[C@@H]2[C@H]1O)O[C@@H](c1ccc(O)c(O)c1)[C@H](O)[C@H]4c1c(O)cc(O)c2c1O[C@H](c1ccc(O)c(O)c1)[C@H](O)C2
5.46
Oc1cc(O)c2c(c1)O[C@H](c1ccc(O)c(O)c1)[C@H](O)[C@H]2c1c(O)cc(O)c2c1O[C@H](c1ccc(O)c(O)c1)[C@H](O)[C@H]2c1c(O)c2c(c3c1O[C@]1(c4ccc(O)c(O)c4)Oc4cc(O)cc(O)c4[C@H]3[C@H]1O)O[C@H](c1ccc(O)c(O)c1)[C@H](O)[C@H]2c1c(O)cc(O)c2c1O[C@H](c1ccc(O)c(O)c1)[C@H](O)C2
4.50
Oc1cc(O)c2c(c1)O[C@H](c1ccc(O)c(O)c1)[C@H](O)[C@H]2c1c(O)cc2c(c1O)[C@@H]1c3c(cc(O)c4c3O[C@H](c3ccc(O)c(O)c3)[C@H](O)[C@H]4c3c(O)cc(O)c4c3O[C@H](c3ccc(O)c(O)c3)[C@H](O)C4)O[C@](c3ccc(O)c(O)c3)(O2)[C@@H]1O
4.98

Prompt: Complete the entry with pIC50 for Oc1cc(O)c2c(c1)O[C@@]1(c3ccc(O)c(O)c3)Oc3cc(O)c4c(c3[C@@H]2[C@H]1O)O[C@H](c1ccc(O)c(O)c1)[C@H](O)[C@H]4c1c(O)cc(O)c2c1O[C@H](c1ccc(O)c(O)c1)[C@@H](O)C2 [CINNAMTANNIN D1]
Response: 4.03

Prompt: Please report pIC50 for the following compound: C[C@H]1O[C@H](O[C@H]2[C@H](O)[C@@H](O)[C@@H](O[C@H]3[C@H](O)[C@@H](O)C(O)O[C@@H]3CO)O[C@@H]2CO)[C@H](O)[C@@H](O)[C@@H]1N[C@H]1C=C(CO)[C@@H](O)[C@H](O)[C@H]1O (some centres undefined)
Response: 7.31
